- Tested on: EKVX
- protocol-summary: NCI tumour cell line growth inhibition, 48 h
Active and inactive are the calls of the source. Cut-off read from the data, not from the text of the source: active = GI50 up to about 1.1 µM and inactive = higher.
Select the correct class. Options are Yes (active), No (inactive) and nothing else.

compound=Cc1c2ccccc2c(CSC(=N)N)c2ccccc12 label_value=Yes

Query block: Test call for this compound, please: COc1ccc(-n2cnc3c(NC(CCSC)C(=O)O)ncnc32)cc1 (stereo not given)
Result block: No

Query block: Short answer needed: outcome of this test for `Nc1nc(-c2ccccc2)nc2oc(-c3cccs3)nc12` ?
Result block: No

Query block: Entry CCCCCCCCCCCCCCCC(=O)OC1C(O)C(CO)OC(OC)C1NC(=O)N(CCCl)N=O (stereo not given) : call = ?
Result block: No

Query block: Called result for `CCOC(=O)c1c(NNc2ccccc2)nc2ccccc2c1-c1ccccc1`
Result block: No

Query block: I'd appreciate the recorded outcome for `COc1cc(Oc2c(C)c(Cl)c(OC)c(Cl)c2OC)c2c(c1Cl)COC2=O` from this test.
Result block: No

Query block: Lab log entry: `C/C(=N/NC(=S)N1CCCCCC1)c1ccccc1O` — outcome as called in the assay?
Result block: No

Query block: Answer briefly: the call reported for `Cn1c(N)[n+](C(=O)OCc2ccccc2)c(=O)c2c1ncn2C(=O)OCc1ccccc1` in this assay.
Result block: No
